// reported pKd for each item listed
Target: T1, BALBc mouse SIRP-α (mouse (BALB/c strain))
T1 chain: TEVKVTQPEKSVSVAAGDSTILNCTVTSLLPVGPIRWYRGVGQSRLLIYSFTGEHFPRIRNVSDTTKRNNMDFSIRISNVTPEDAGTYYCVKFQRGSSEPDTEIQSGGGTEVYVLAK
Experiment: SPR, antibody on GLC chip
pKd: −log10 of the molar value.
outcome.measure: pKd

binder="antibody 136 variant, light chain Mut_I2T / heavy chain Mut_V34M (antibody, V domains shown) VH: EVQLVESGGGVVQPGRSLRLSCAASGFTFSSYDMNWVRQAPGKGLEWVSLISGSGEIIYYADSVKGRFTISRDNSKNTLYLQMNSLRAEDTAVYYCAKENNRYRFFDDWGQGTLVTVSS VL: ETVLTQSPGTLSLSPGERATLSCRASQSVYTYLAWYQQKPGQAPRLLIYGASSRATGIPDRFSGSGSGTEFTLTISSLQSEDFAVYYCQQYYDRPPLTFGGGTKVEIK" outcome_measure=pKd value=9.44
binder="antibody 136 variant, light chain Mut_I2T / heavy chain Mut (antibody, V domains shown) VH: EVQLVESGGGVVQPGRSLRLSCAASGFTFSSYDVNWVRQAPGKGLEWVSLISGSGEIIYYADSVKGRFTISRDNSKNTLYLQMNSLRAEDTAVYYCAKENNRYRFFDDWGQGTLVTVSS VL: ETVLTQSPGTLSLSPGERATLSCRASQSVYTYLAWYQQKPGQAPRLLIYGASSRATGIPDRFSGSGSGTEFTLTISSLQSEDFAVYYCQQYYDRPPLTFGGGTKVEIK" outcome_measure=pKd value=9.37
binder="antibody 136 variant, light chain Mut_Q38E / heavy chain Mut (antibody, V domains shown) VH: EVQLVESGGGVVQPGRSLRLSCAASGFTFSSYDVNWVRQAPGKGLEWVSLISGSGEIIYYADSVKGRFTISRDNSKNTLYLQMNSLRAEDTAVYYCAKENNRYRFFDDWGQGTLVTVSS VL: EIVLTQSPGTLSLSPGERATLSCRASQSVYTYLAWYQEKPGQAPRLLIYGASSRATGIPDRFSGSGSGTEFTLTISSLQSEDFAVYYCQQYYDRPPLTFGGGTKVEIK" outcome_measure=pKd value=8.53
binder="antibody 136 variant, light chain wt / heavy chain Mut (antibody, V domains shown) VH: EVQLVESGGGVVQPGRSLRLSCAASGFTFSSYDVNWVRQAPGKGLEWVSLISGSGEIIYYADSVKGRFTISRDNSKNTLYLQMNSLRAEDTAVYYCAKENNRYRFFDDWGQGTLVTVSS VL: ETVLTQSPGTLTLSPGERATLTCRASQSVYTYLAWYQEKPGQAPRLLIYGASSRATGIPDRFSGSGSGTEFTLTISSLQSEDFAVYYCQQYYDRPPLTFGGGTKVEIK" outcome_measure=pKd value=9.38
binder="antibody 136 variant, light chain Mut / heavy chain Mut (antibody, V domains shown) VH: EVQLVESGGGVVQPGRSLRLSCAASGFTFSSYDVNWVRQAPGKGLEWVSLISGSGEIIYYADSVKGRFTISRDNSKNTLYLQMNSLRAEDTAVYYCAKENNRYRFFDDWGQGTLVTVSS VL: EIVLTQSPGTLSLSPGERATLSCRASQSVYTYLAWYQQKPGQAPRLLIYGASSRATGIPDRFSGSGSGTEFTLTISSLQSEDFAVYYCQQYYDRPPLTFGGGTKVEIK" outcome_measure=pKd value=8.50
binder="antibody 136 variant, light chain Mut_S12T / heavy chain Mut (antibody, V domains shown) VH: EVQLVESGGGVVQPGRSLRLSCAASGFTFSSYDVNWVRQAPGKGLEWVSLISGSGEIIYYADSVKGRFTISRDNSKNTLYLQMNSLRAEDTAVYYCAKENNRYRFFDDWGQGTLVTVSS VL: EIVLTQSPGTLTLSPGERATLSCRASQSVYTYLAWYQQKPGQAPRLLIYGASSRATGIPDRFSGSGSGTEFTLTISSLQSEDFAVYYCQQYYDRPPLTFGGGTKVEIK" outcome_measure=pKd value=8.68
binder="antibody 136 variant, light chain Mut_S22T / heavy chain Mut (antibody, V domains shown) VH: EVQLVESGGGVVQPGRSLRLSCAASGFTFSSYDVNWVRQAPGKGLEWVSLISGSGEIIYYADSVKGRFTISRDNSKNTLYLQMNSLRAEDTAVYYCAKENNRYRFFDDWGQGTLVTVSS VL: EIVLTQSPGTLSLSPGERATLTCRASQSVYTYLAWYQQKPGQAPRLLIYGASSRATGIPDRFSGSGSGTEFTLTISSLQSEDFAVYYCQQYYDRPPLTFGGGTKVEIK" outcome_measure=pKd value=8.79
